- test_target: T1, ARHGAP21, Q5T5U3
- T1 sequence (Q5T5U3 45-169, limits assumed, looked up): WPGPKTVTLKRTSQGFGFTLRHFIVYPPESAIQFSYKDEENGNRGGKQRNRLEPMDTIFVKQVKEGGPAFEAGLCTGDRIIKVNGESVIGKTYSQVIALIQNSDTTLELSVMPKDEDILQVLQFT
- assay_remarks: holdup assay
- Set-up: key: below the threshold = too weak to quantify, mostly under pKd 3.1 to 4
- condition_info: plain residues with an end cap or a label only (N-terminal biotin on a linker: ado-ado)
// values below are reported pKd
Kindly provide the number alone.

Check out these entries, answers already filled in.
[[record]]
binder = "NNMAFETTHF [SLC5A12, Q1EHB4]"
reported = 3.94

[[record]]
binder = "KEKASTETEC [TRPM1, Q7Z4N2]"
reported = 3.97


Continue with the binder presented below.
## Input Item under review: GTMFLRETSL [GUCY1A2, P33402] . Reported pKd?
## Output 4.7
